molecular target: His6-SCO4439 (Streptomyces coelicolor, UniProt Q9KZY7); construct: whole SCO4439 gene with N-terminal His6 tag in pET11a (pBRB7), expressed in E. coli JM109 (DE3), HisTrap purified, tag kept; native protein 84 kDa; tag followed by VARED (from primer BRB7F); assay: D-Ala release, D-amino acid oxidase-peroxidase coupled colorimetric assay
Sequence (Q9KZY7 entry or part of it): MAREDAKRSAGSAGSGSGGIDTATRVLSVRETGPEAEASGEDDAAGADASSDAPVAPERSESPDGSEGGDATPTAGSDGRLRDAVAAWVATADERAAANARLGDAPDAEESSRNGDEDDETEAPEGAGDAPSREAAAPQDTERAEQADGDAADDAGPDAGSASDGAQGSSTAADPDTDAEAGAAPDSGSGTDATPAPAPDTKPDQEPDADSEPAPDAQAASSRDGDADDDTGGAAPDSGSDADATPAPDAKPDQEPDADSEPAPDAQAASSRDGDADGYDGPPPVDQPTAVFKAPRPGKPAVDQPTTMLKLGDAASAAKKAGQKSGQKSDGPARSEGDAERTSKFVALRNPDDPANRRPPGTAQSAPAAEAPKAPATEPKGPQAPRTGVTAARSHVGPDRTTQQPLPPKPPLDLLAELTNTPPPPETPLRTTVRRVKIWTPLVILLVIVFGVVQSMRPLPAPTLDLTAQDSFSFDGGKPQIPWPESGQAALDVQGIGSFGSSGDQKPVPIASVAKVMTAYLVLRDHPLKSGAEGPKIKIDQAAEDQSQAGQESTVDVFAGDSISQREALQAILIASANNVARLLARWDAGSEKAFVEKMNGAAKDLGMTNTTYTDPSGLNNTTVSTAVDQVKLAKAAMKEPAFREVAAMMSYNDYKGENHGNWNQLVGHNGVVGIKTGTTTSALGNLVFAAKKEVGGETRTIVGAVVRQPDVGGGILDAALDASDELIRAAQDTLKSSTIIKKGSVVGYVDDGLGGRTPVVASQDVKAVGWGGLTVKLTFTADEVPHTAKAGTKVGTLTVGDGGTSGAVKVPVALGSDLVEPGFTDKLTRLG
measurement name: IC50 (mM)
Give the value, in units of mM, as a plain number.

Query :: Indicate the recorded IC50 value for this compound: `CC1(C)S[C@@H]2[C@H](NC(=O)Cc3ccccc3)C(=O)N2[C@H]1C(=O)O`
Result :: 1
